Here the recorded normalized growth is given for each entry.
ASSAY_PROTOCOL: chemical genetic growth profiling, strain panel (AID 1159580);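 further: tested at 20 µM; growth read once vehicle control cultures reached saturation at 30 °C; 1 = growth at the plate median or of vehicle wells; lower values mean less growth of the strain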
RUN_CONDITIONS: S. cerevisiae deletion strains, growth OD, locus YJR066W, strain TOR1, active compounds read low
Screen size: about 5,500 compounds; about 2,000 (36%) were called active. Inconclusive results (about 18%) are left out. This is one part of the list.

- COMPOUND: "Cc1ccc(-n2cccc2)c(NS(=O)(=O)c2ccc(-c3ccno3)s2)c1"
  normalized growth: 0.816
- COMPOUND: "CN(C)[C@@H]1C(=O)C(C(N)=O)=C(O)[C@@]2(O)C(=O)C3=C(O)c4c(O)cccc4[C@@](C)(O)[C@H]3[C@H](O)[C@@H]12"
  normalized growth: 0.928
- COMPOUND: "Cc1cc(=O)oc2cc(O)c(O)cc12"
  normalized growth: 0.913
- COMPOUND: "CSc1n[nH]c(-c2cc(C(C)(C)C)oc2C)c1C#N"
  normalized growth: 0.789
- COMPOUND: "CCC(C)C(=O)OC1[C@@H]2CC3=C4CC(=O)O[C@@H](c5ccoc5)[C@]4(C)CCC3[C@@](C)(C2=O)[C@@H](CC(=O)OC)C1(C)C (stereo not given in full)"
  normalized growth: 0.91

* * *

ASSAY_PROTOCOL: chemical genetic growth profiling, strain panel (AID 1159580);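 further: tested at 20 µM; growth read once vehicle control cultures reached saturation at 30 °C; 1 = growth at the plate median or of vehicle wells; lower values mean less growth of the strain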
RUN_CONDITIONS: S. cerevisiae deletion strains, growth OD, locus YDR069C, strain doa4, active compounds read low
The whole screen tested about 5,500 compounds, of which about 2,000 (36%) were called active. About 18% were inconclusive and are not listed. This is one part of the list.
Parameter normalized growth: see the listing below.
MEASURED_QUANTITY: normalized growth

- MOLECULE: "CC(C)(C)NCC(O)c1ccc(O)c(CO)c1 (stereo unspecified)"
  MEASUREMENT: 0.998
- MOLECULE: "CC(C)NCC(O)COc1ccc(COCCOC(C)C)cc1 (stereo unspecified)"
  MEASUREMENT: 1.02
- MOLECULE: "CC(CCc1ccccc1)NCC(O)c1ccc(O)c(C(N)=O)c1 (stereo unspecified)"
  MEASUREMENT: 1.01
- MOLECULE: "NC1=NCCN1CC(=O)O"
  MEASUREMENT: 1.02
- MOLECULE: "CO[C@H]1CC(O[C@@H]2/C(C)=C/C[C@@H]3C[C@@H](C[C@]4(CC[C@H](C)[C@@H](C5CCCCC5)O4)O3)OC(=O)[C@@H]3C=C(C)/C(=N\\O)[C@H]4OC/C(=C\\C=C\\[C@@H]2C)[C@]43O)O[C@@H](C)C1O (stereo partly specified)"
  MEASUREMENT: 1
- MOLECULE: "CC(=O)c1cc(CC=C(C)C)c(O)c(CC=C(C)C)c1"
  MEASUREMENT: 1
- MOLECULE: "CC(=O)Nc1ccc(S(=O)(=O)Nc2onc(C)c2C)cc1"
  MEASUREMENT: 0.962
- MOLECULE: "Cc1nc(N)cc(C[n+]2csc(CCO)c2C)n1"
  MEASUREMENT: 0.984
- MOLECULE: "CC(=O)c1ccc(O)c(CC=C(C)C)c1"
  MEASUREMENT: 0.951
- MOLECULE: "COc1cc(C(C)=O)cc(OC)c1O"
  MEASUREMENT: 1.04
- MOLECULE: "O=P1(NCCCl)OCCCN1CCCl (stereo unspecified)"
  MEASUREMENT: 0.995

Values compiled from PubChem BioAssay AID1159580.
